B1: CPEB3 Ribozyme (parent)
chain: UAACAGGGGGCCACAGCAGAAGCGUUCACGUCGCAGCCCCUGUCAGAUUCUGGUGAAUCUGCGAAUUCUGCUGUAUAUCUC

- Variants of: B1
- ASSAY_OVERVIEW: self-cleavage, relative activity (ratio to wild type); higher = more cleavage; in vitro, sequencing
Here the recorded self-cleavage is given for each entry.

Observe how each entry below is paired with its result.
INSERT INTO assay_data (variant_identifier, obs_value) VALUES
  ('A28U U43A', 1),
  ('G10C U78A', 0.09),
  ('G22U A75C', 0.23),
  ('G61A U72C', 0.73),
  ('C39A G70A', 0.11),
  ('U26C U51A', 0.43),
  ('U72C A75G', 1.14),
  ('A21G U66A', 0.42);

q: Which self-cleavage value belongs to A35U U51A ?
a: 0.56

q: Quick one: self-cleavage for U1A G9A ?
a: 0.28

q: What does the data say about its self-cleavage? Entry: C27A A57G
a: 0.08

q: # get_value(readout='self-cleavage', item= G19A A28G )
a: 0.2

q: Given the variant C29U U69A , what is its reported self-cleavage?
a: 0.3

q: Given the variant U51A G61A , what is its reported self-cleavage?
a: 1.01

q: Request the reported self-cleavage associated with C29A G53U
a: 0.42

q: Sample U26G C38A — what was its self-cleavage?
a: 0.58

q: Could you tell me which self-cleavage is on file for A20G C50A ?
a: 0.89

q: Value lookup for self-cleavage; key = C34U U51A
a: 0.34

q: Given the variant A15G A35G , what is its reported self-cleavage?
a: 0.68

q: Which self-cleavage value is on record for A21G U67C ?
a: 0.24

q: GET /values?readout=self-cleavage&item= C29A C40A
a: 0.17

q: So what's the measured self-cleavage for this one? U26G C79A
a: 0.19

q: Recorded self-cleavage of C37G C62G , please.
a: 0.5

q: I would be grateful if you could share the reported self-cleavage for A13U U48A .
a: 0.56

q: Fill blank: measured self-cleavage of the variant G8A U67C is ____.
a: 0.22

q: self-cleavage lookup needed for G8U C59U , thanks.
a: 0.1

q: Fill in the blank: the reported self-cleavage of A5C A13G is ____.
a: 1.07
